Entry source: ChEMBL document CHEMBL1909046

Molecular target: D(4) dopamine receptor (Homo sapiens, UniProt P21917)
Sequence (P21917 whole entry): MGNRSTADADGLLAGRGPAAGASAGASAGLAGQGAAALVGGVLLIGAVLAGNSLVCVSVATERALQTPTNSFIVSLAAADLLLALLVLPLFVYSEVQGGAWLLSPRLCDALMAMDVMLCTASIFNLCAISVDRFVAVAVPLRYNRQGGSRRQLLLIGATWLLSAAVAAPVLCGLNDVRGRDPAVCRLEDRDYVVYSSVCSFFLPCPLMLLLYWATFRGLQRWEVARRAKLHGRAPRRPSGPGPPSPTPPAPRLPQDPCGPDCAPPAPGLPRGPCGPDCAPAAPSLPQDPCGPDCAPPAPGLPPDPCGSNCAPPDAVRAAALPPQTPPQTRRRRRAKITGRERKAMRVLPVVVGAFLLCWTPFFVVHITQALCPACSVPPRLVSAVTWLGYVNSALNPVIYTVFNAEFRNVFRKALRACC
Assay: DRUGMATRIX: Dopamine D4.2 radioligand binding (ligand: [3H] Spiperone)
Type: cell membranes, CHO-K1, Membrane
Conditions: cho-k1; Not Active = under 50% inhibition at 10 µM
MEASUREMENT NAME: IC50

The examples below pair each entry with its known result.
1) Cl.NC[C@H]1CC[C@H](C(=O)Oc2ccc(CCC(=O)O)cc2)CC1 [CETRAXATE HYDROCHLORIDE] : Not Active
2) Cc1ccnc(NS(=O)(=O)c2ccc(N)cc2)n1 : Not Active
3) O=C(c1ccccc1)c1ccc2n1CCC2C(=O)O (stereo not drawn) : Not Active
4) CCN1CCN(c2cc3c(cc2F)c(=O)c(C(=O)O)cn3C2CC2)CC1 : Not Active
5) O=C1CC[C@@]2(O)[C@H]3Cc4ccc(O)c5c4[C@@]2(CCN3CC2CC2)[C@H]1O5 [NALTREXONE] : Not Active

API: the following record is the query input.
Would you kindly share the measured IC50 for `CC(C)(c1ccc(O)cc1)c1ccc(O)cc1` ? Not Active
